Would you mind telling me the reported PBM binding z-score of each entry?
Test system: PPARg:RXRa DBDmut IVT, anti-RXR (DBD mutation: RXRa K156A/R161A, NR concentration 270 nM, RXRa partner concentration 90 nM)
Assay: PBM binding z-score (relative to random genomic background probes); higher = stronger binding; sequences stand for … in GC…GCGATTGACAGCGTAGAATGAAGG
Just the number, please, no unit after it.

Lookup result for "CCTAGTTGGTCAAGGTCACGCACGCTATAGGTAC" ; measured PBM binding z-score: 2.54

Lookup result for "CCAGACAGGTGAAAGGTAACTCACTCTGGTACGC" ; measured PBM binding z-score: 2.36

Lookup result for "ACAGACAGGTGAGTGAAGGTCACTCAGCTGGACG" ; measured PBM binding z-score: 0.842

Lookup result for "AGTCAAAGTTCAGGACGAGGTAAAGTAAAGCACG" ; measured PBM binding z-score: 0.127

Lookup result for "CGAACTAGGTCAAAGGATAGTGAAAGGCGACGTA" ; measured PBM binding z-score: 8.11

Lookup result for "ATATGTAGGTCAGCTGGGGTCATTCAGACTAGGC" ; measured PBM binding z-score: 8.08

Lookup result for "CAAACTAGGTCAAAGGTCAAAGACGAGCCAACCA" ; measured PBM binding z-score: 8.8

Lookup result for "CAAACTAGGTCACGAAAGGTCAAAGCCGAATGAC" ; measured PBM binding z-score: 8.59

Lookup result for "CCTGCTAGGTCAATGGTCAGCTAAAGCAGCTCGC" ; measured PBM binding z-score: 4.63

Lookup result for "CTATGTAGGTTAAGGGGGTTATTCAGTTTGAAAG" ; measured PBM binding z-score: 6.94

Lookup result for "TCGAGTAGGTTACGGGGGAATTCAGGGATGAAGA" ; measured PBM binding z-score: 4.46

Lookup result for "CGTCCAAGGTCAATGTTAGGTCAGTGAAAGCATT" ; measured PBM binding z-score: 2.85

Lookup result for "CCTTACGGGTCACGGGGTTATAGCACGACGAGCG" ; measured PBM binding z-score: 3.39

Lookup result for "ACTCGGGGGACAAAGGTCAGAGCTACGCCAGTGA" ; measured PBM binding z-score: 2.49

Lookup result for "CAGCCTAGGTGAGGGCCAGTATAGGAGGAACGTT" ; measured PBM binding z-score: 0.681

Lookup result for "CGAACTAGGTCAAAGGACAGTCAAAGGCGACGTA" ; measured PBM binding z-score: 8.1

Lookup result for "CCTTACGGGTCAAGGTAATAGCACGGGTGGTACG" ; measured PBM binding z-score: 1.83

---

Would you mind telling me the reported PBM binding z-score of each entry?
System: RARg:RXRa (NR concentration 270 nM, RXRa partner concentration 90 nM)
Assay: PBM binding z-score (relative to random genomic background probes); higher = stronger binding; sequences stand for … in GC…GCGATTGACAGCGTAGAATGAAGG
Just the number, please, no unit after it.

Lookup result for "ACTAGTTGGTAAGCTGAGGTCACACACAATTCGG" ; measured PBM binding z-score: 3.45

Lookup result for "ACTAGTGGGTCAGCTGAGGTCACACACAATTCGG" ; measured PBM binding z-score: 5.77

Lookup result for "TCGAGGAGGTTACGGGGGCATTCAGGGATGAAGA" ; measured PBM binding z-score: 4.51

Lookup result for "CCTTACGGGTCACTGACAGCTTATAGCATTTGGA" ; measured PBM binding z-score: 4.67

Lookup result for "CTATGTAGGTTAAGTGGGTCATTCAGTTTGAAAG" ; measured PBM binding z-score: 1.97

Lookup result for "CTATGTCGGTTAAGGGGGTCATTCAGTTTGAAAG" ; measured PBM binding z-score: 4.91

Lookup result for "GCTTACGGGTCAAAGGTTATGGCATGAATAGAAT" ; measured PBM binding z-score: 6.98

Lookup result for "ATATGTAGGTTAGGGTCATTCGGAAAGTAGGGAA" ; measured PBM binding z-score: 4.07

Lookup result for "TCGAGTAGGTTACGGGGGCATTAAGGGATGAAGA" ; measured PBM binding z-score: 3.09

Lookup result for "CTATGTAGGTTGAGGGGGTCATTCAGTTTGAAAG" ; measured PBM binding z-score: 5.4

Lookup result for "CGAACTAGGTCAAAGGACAGTGAAAGGCGACGTA" ; measured PBM binding z-score: 3.94

Lookup result for "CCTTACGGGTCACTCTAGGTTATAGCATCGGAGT" ; measured PBM binding z-score: 4.35

Lookup result for "CTATGTAGGTTAAGGGGGACATTCAGTTTGAAAG" ; measured PBM binding z-score: 1.81

Lookup result for "GCTGCTAGGTAAGGTTGGTCAGCTAACGGGTACG" ; measured PBM binding z-score: -0.277

Lookup result for "GCTGCTAGGTCAGGTTGGTCGGCTAACGGGTACG" ; measured PBM binding z-score: 2.38

Lookup result for "CGTCCAAGGTCAAGCTCAGTGAAAGAGACTCGAA" ; measured PBM binding z-score: 6.43

Lookup result for "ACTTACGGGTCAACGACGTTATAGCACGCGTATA" ; measured PBM binding z-score: 5.07

Lookup result for "CTATGTAGGTTAAGGGCGTCATTCAGTTTGAAAG" ; measured PBM binding z-score: 0.63

Lookup result for "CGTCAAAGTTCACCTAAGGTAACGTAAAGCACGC" ; measured PBM binding z-score: 5.95
